Biological target: T1, human GLP-2 receptor (human, UniProt O95838 1-553)
T1 sequence (looked up): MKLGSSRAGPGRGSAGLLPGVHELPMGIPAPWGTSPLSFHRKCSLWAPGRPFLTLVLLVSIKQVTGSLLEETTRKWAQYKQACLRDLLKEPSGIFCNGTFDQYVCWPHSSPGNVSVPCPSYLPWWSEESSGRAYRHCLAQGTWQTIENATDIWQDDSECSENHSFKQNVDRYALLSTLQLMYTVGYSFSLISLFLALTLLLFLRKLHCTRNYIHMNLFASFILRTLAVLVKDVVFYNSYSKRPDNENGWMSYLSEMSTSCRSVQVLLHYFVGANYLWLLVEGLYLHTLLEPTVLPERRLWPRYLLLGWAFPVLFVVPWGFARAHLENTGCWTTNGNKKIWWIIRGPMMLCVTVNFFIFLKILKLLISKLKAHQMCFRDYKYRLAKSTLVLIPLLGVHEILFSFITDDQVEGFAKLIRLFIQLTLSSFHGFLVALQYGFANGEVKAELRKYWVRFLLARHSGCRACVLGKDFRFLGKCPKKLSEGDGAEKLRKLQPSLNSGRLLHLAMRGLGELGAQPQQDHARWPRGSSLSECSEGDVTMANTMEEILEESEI
Assay: cell-based or functional assay
quantity_kind: EC50 (cAMP) (nM)
Enter your answer as a number in nM; do not include the unit.

## Task Recorded EC50 (cAMP) of HADGTFIDDYSTILDNLAARDFINWLIQTKITD [GIP-GLP-2 co-agonist 14] , please.
## Result 11

## Task How about HAEGTFISDYSTILDNLAARDFINWLIQTKGKK [GIP-GLP-2 co-agonist 10] ?
## Result 22

## Task Also check HAEGTFISDYSIAMDKLAARDFINWLIQTKITD [GIP-GLP-2 co-agonist 7]
## Result 351

## Task Also, HADGTFSSDYSTILDNLAARDFINWLIQTKITD [GIP-GLP-2 co-agonist 13] please.
## Result 11

## Task Further, for HADGTFISDYSTILDNLAARDFINWLIQTKITD [GIP-GLP-2 co-agonist 3] ?
## Result 21
